testSystem: Cragi-CCKR1 (Magallana gigas)
Sequence (A0A345BJM8 1-408): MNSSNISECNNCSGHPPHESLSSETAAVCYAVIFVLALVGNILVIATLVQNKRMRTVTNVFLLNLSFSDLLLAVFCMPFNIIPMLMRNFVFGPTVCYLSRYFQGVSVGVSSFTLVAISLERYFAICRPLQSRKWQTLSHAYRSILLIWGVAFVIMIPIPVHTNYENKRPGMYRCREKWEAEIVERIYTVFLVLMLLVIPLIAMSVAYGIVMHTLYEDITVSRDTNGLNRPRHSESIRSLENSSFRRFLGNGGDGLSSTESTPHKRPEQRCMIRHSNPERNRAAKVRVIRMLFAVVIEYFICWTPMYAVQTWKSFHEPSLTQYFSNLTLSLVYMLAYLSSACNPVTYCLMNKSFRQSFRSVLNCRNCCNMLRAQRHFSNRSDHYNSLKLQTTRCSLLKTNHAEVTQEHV
assayNotes: Calcium fluorescence (mobilization) assay, Cragi-CCKR1 in HEK293T cells
Assay type: cell-based, Crassostrea gigas
measurementConditions: HEK293T transiently transfected with Cragi-CCKR1, Fluo-4 calcium response, 37 °C; values given in M; read-out: EC50 for receptor activation, Cragi-CCKR1
pEC50: −log10 of the molar value. Where no end group is shown, it is not given here.
readout: pEC50

Task: Short answer please: pEC50, Cragi-CCKR1 (Magallana gigas), entry FDYGGGRW-NH2 [Cragi-CCK2]
Output: < 4.00
